The reader will find reported concentration required to inhibit bacterial growth with antibiotic values listed item by item below.
System: Salmonella typhimurium ATCC 14028
Assay: Growth inhibition and FIC with rifampicin, Salmonella typhimurium ATCC 14028
Assay type: cell-based
Conditions: Table 13; Salmonella typhimurium ATCC 14028^b; rifampicin (by order) at 0.5, 1.0 or 3.0 μg/mL
Numbers only here, please. The scale is µg/mL.

C[C@]12CC[C@@H](OCCCN)C[C@H]1C[C@@H](OCCCN)[C@@H]1[C@@H]2C[C@H](OCCCN)[C@]2(C)[C@@H](O)CC[C@@H]12 ... 1.4
C[C@H](CCCO)[C@H]1CC[C@H]2[C@@H]3[C@H](OCCCN)C[C@@H]4C[C@H](OCCCN)CC[C@]4(C)[C@H]3C[C@H](OCCCN)[C@]12C ... 0.55

Problem: Sample CCCOCCC[C@@H](C)[C@H]1CC[C@H]2[C@@H]3[C@H](OCCCN)C[C@@H]4C[C@H](OCCCN)CC[C@]4(C)[C@H]3C[C@H](OCCCN)[C@]12C — what was its concentration required to inhibit bacterial growth with antibiotic?
Solution: 0.10

Problem: Note, next up: C[C@H](CCCN(C)Cc1ccccc1)[C@H]1CC[C@H]2[C@@H]3[C@H](OCCCN)C[C@@H]4C[C@H](OCCCN)CC[C@]4(C)[C@H]3C[C@H](OCCCN)[C@]12C
Solution: 0.39

Problem: Note, next up: C[C@H](CCCN(C)Cc1ccccc1)[C@H]1CC[C@H]2[C@@H]3[C@H](OCCN)C[C@@H]4C[C@H](OCCN)CC[C@]4(C)[C@H]3C[C@H](OCCN)[C@]12C
Solution: 0.84

###

Tested on: E. coli (ATCC 25922)
Assay: MIC and MBC measurement with E. coli (ATCC 25922)
Assay type: cell-based, Escherichia coli
Conditions: Table 10; Escherichia coli ATCC 25922
The reader will find reported log10(MBC) values listed item by item below.
// stored as log10 of MBC expressed in µg/mL

These solved cases illustrate the format of a correct answer.
C[C@H](CCCN(C)Cc1ccccc1)[C@H]1CC[C@H]2[C@@H]3[C@H](OCCN)C[C@@H]4C[C@H](OCCN)CC[C@]4(C)[C@H]3C[C@H](OCCN)[C@]12C [Compound 1] ... 1.34
CCCCCCCCNCCC[C@@H](C)[C@H]1CC[C@H]2[C@@H]3[C@H](OCCCN)C[C@@H]4C[C@H](OCCCN)CC[C@]4(C)[C@H]3C[C@H](OCCCN)[C@]12C [Compound 133] ... 0.48
C[C@H](CCCN(C)Cc1ccccc1)[C@H]1CC[C@H]2[C@@H]3[C@H](OCCCNC(=N)N)C[C@@H]4C[C@H](OCCCNC(=N)N)CC[C@]4(C)[C@H]3C[C@H](OCCCNC(=N)N)[C@]12C [Compound 5] ... 0.58
C[C@]12CC[C@@H](OCCCN)C[C@H]1C[C@@H](OCCCN)[C@@H]1[C@@H]2C[C@H](OCCCN)[C@]2(C)[C@@H](O)CC[C@@H]12 [Compound 106] ... 1.95
CCCOCCC[C@@H](C)[C@H]1CC[C@H]2[C@@H]3[C@H](OCCCN)C[C@@H]4C[C@H](OCCCN)CC[C@]4(C)[C@H]3C[C@H](OCCCN)[C@]12C [Compound 112] ... 0.87

Problem: Sample C[C@H](CCCN(C)Cc1ccccc1)[C@H]1CC[C@H]2[C@@H]3[C@H](OCCCN)C[C@@H]4C[C@H](OCCCN)CC[C@]4(C)[C@H]3C[C@H](OCCCN)[C@]12C [Compound 2] — what was its log10(MBC)?
Solution: 0.83

Problem: Note, next up: CCCCCCCCNCCC[C@@H](C)[C@H]1CC[C@H]2[C@@H]3[C@H](OCCCNC(=N)N)C[C@@H]4C[C@H](OCCCNC(=N)N)CC[C@]4(C)[C@H]3C[C@H](OCCCNC(=N)N)[C@]12C [Compound 134]
Solution: -0.43
